Data origin: ChEMBL document CHEMBL1201862

- System: HCC 2998
- assay comment: NCI tumour cell line growth inhibition, 48 h
Active and inactive are the calls of the source. Cut-off read from the data, not from the text of the source: active = GI50 up to about 1.1 µM and inactive = higher.
Answer with one of the outcomes active, inactive

How was N#Cc1c(O)c(/C=N/c2ccc(Cl)cc2)c(=O)n2c1[nH]c1ccccc12 classified in this test?
inactive

---

Each entry below carries its recorded GI50.
- Test system: PC-3
- assay comment: NCI tumour cell line growth inhibition, 48 h
Active and inactive are the calls of the source. No stated cut-off is given here; in the data, active = GI50 up to about 1.1 µM and inactive = higher.

Look over these answered cases.
>  <compound>
O=c1[nH]c2ccsc2c(=O)n1COCc1ccccc1

>  <test readout>
GI50

>  <value reported>
> 100 µM (inactive)

$$$$
>  <compound>
C/C(Cl)=N\OC(=O)Nc1ccc([N+](=O)[O-])cc1

>  <test readout>
GI50

>  <value reported>
16.2 µM (inactive)

$$$$
>  <compound>
O=[N+]([O-])/C=C/c1c(Cl)cccc1Cl

>  <test readout>
GI50

>  <value reported>
1.77 µM (inactive)

$$$$
>  <compound>
O=C(N/N=C\c1cccc(O)c1)c1ccncc1

>  <test readout>
GI50

>  <value reported>
> 100 µM (inactive)

$$$$
>  <compound>
CN(/N=C/c1ccc(OCc2cccc(COc3ccc(C=O)cc3)n2)cc1)c1cnn(-c2ccc(Cl)cc2Cl)c(=O)c1Cl

>  <test readout>
GI50

>  <value reported>
> 100 µM (inactive)

$$$$
>  <compound>
Cc1cn(CC2=NCC(O)CN2)c(=O)[nH]c1=O (stereo not drawn)

>  <test readout>
GI50

>  <value reported>
> 100 µM (inactive)

$$$$
>  <compound>
CS(=O)(=O)N1CC(CCl)c2ccc(NCCN)cc21 (stereo not drawn)

>  <test readout>
GI50

>  <value reported>
> 100 µM (inactive)

$$$$
>  <compound>
NCCCCC(NC(=O)C(N)Cc1ccc(O)cn1)C(=O)O (stereo not drawn)

>  <test readout>
GI50

>  <value reported>
> 100 µM (inactive)

$$$$
>  <compound>
COc1ccc(N2C(=O)/C(=C\c3ccccc3)SC2c2cc(OC)c(OC)c(OC)c2)cc1 (stereo not drawn)

>  <test readout>
GI50

>  <value reported>
39.2 µM (inactive)

$$$$
>  <compound>
C/C(=C\COc1ccc2ccc(=O)oc2c1)CCC(=O)C(C)(C)O

>  <test readout>
GI50

>  <value reported>
53.5 µM (inactive)

$$$$

Observed GI50 on PC-3 for CN(C)/C=C/c1nnc([N+](=O)[O-])s1 , please.
4.95 µM (inactive)

Follow-up item: CC(=O)/C=C1/C(=O)C(CC(C)C)=C1CC(C)C
> 100 µM (inactive)

Follow-up item: C[C@@H]1CC[C@@]2(OC1)O[C@H]1C[C@H]3[C@@H]4CC[C@H]5C[C@@H](OC6OC(CO)C(OC7OC(CO)C(O)C(OC8OCC(O)C(O)C8O)C7OC7OC(CO)C(O)C(O)C7O)C(O)C6O)[C@H](O)C[C@]5(C)[C@H]4CC[C@]3(C)[C@H]1[C@@H]2C (stereo partly drawn)
3.15 µM (inactive)
